Where do these numbers come from? They come from patent US20260217671A1.

# procedureSummary: Pharmacokinetic experiment (gavage, plasma)
# Type: in vivo
# testParameters: po, rat, gavage (p.o.) 10 mg/kg
outcomeMeasure: AUC(0-t) (ng·h/mL)

| compound | unit | assayResult |
| --- | --- | --- |
| C[C@@H](c1ccccc1)[C@@H]1NC(=O)C=C1OCc1ccc(F)cc1 | ng·h/mL | 5800 |
| C[C@@H](OC1=CC(=O)N[C@H]1Cc1ccccn1)c1ccc(F)cc1 | ng·h/mL | 5700 |
| O=C1C=C(OCc2ccc(F)cc2)[C@H](Cc2ccccc2)N1 [Compound 50561, reference compound] | ng·h/mL | 2500 |
| O=C1C=C(OCc2ccc(F)cc2)[C@H](Cc2ccccn2)N1 | ng·h/mL | 3500 |
| O=C1C=C(OCc2ccc(F)cc2)[C@H](Cc2ncccc2F)N1 | ng·h/mL | 2470 |
| [2H]C([2H])(OC1=CC(=O)N[C@H]1Cc1ccccc1)c1ccc(F)cc1 | ng·h/mL | 3410 |
| C[C@@H](OC1=CC(=O)N[C@H]1Cc1ccccc1)c1ccc(F)cc1 | ng·h/mL | 6730 |
